system-name: UniProtKB Q9WTL7
Sequence (Q9WTL7 whole entry): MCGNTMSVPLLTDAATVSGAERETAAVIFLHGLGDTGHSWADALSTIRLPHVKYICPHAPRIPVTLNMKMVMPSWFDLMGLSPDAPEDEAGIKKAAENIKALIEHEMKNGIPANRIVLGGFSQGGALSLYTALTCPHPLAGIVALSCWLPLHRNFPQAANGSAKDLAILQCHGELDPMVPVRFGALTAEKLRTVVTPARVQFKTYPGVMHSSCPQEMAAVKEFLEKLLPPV
assay-explanation: Inhibition of FP-rhodamine-labelled recombinant mouse LYPLA2 at 10 uM preincubated for 30 mins followed by FP-rhodamine labelling measured after 30 mins by gel-based competitive ABPP assay
Active and inactive are the calls of the source. The calls are words filed in the database; no cut-off is given here.

compound	inhibition
O=C(N1CCCCC1c1ccccc1)n1cc(-c2ccc(-c3ccc(CO)cc3)cc2)nn1 (racemic)	Active
O=C(N1CCCCC1c1ccccc1)n1cc(-c2ccc(-c3ccccc3CO)cc2)nn1 (racemic)	Active
O=C(O)c1cccc(-c2ccc(-c3cn(C(=O)N4CCCCC4c4ccccc4)nn3)cc2)c1 (racemic)	Active
O=C(c1ccc(-c2ccc(-c3cn(C(=O)N4CCCCC4c4ccccc4)nn3)cc2)cc1)N1CCCCC1 (racemic)	Active
O=C(c1cccc(-c2ccc(-c3cn(C(=O)N4CCCCC4c4ccccc4)nn3)cc2)c1)N1CCCCC1 (racemic)	Active
O=C(N1CCCCC1c1ccccc1)n1cc(-c2ccc(-c3cccc(CO)c3)cc2)nn1 (racemic)	Active
NC(=O)c1ccc(-c2ccc(-c3cn(C(=O)N4CCCCC4c4ccccc4)nn3)cc2)cc1 (racemic)	Active

---

system-name: Monoacylglycerol lipase ABHD6 (Mus musculus, UniProt Q8R2Y0)
Sequence (Q8R2Y0 whole entry): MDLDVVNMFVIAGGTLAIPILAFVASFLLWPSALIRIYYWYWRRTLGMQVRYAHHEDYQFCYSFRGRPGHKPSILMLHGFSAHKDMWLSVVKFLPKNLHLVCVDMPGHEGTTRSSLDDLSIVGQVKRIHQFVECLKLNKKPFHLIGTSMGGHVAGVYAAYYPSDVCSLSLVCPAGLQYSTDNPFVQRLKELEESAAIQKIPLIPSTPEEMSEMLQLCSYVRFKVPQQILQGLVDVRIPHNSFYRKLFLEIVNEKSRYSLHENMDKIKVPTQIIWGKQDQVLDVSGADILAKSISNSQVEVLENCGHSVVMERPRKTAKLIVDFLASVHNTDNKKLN
assay-explanation: Inhibition of recombinant mouse ABHD6 expressed in HEK293T using 2-arachidonoylglycerol preincubated for 30 mins followed by substrate addition measured after 30 mins by LC-MS analysis

compound	IC50 / nM
O=C(c1cccc(-c2ccc(-c3cn(C(=O)N4CCCCC4c4ccccc4)nn3)cc2)c1)N1CCCCC1 (racemic)	13.6

---

system-name: Monoacylglycerol lipase ABHD6 (Mus musculus)
assay-explanation: Inhibition of ABHD6 in FP-rhodamine-labelled mouse brain membrane at 10 nM preincubated for 30 mins followed by FP-rhodamine labelling measured after 30 mins by gel-based competitive ABPP assay
Assay type: tissue-based
Catalogue of inhibition readings, one per entry.

molecule	unit-string	inhibition
O=C(c1ccc(-c2ccc(-c3cn(C(=O)N4CCCCC4Cc4ccccc4)nn3)cc2)cc1)N1CCCCC1 (racemic)	%	79
O=C(N1CCCCC1c1ccccc1)n1cc(-c2ccc(-c3ccc(CO)cc3)cc2)nn1 (racemic)	%	47
O=C(O)c1cccc(-c2ccc(-c3cn(C(=O)N4CCCCC4c4ccccc4)nn3)cc2)c1 (racemic)	%	100

---

system-name: Diacylglycerol lipase-beta (Mus musculus)
Sequence (whole entry): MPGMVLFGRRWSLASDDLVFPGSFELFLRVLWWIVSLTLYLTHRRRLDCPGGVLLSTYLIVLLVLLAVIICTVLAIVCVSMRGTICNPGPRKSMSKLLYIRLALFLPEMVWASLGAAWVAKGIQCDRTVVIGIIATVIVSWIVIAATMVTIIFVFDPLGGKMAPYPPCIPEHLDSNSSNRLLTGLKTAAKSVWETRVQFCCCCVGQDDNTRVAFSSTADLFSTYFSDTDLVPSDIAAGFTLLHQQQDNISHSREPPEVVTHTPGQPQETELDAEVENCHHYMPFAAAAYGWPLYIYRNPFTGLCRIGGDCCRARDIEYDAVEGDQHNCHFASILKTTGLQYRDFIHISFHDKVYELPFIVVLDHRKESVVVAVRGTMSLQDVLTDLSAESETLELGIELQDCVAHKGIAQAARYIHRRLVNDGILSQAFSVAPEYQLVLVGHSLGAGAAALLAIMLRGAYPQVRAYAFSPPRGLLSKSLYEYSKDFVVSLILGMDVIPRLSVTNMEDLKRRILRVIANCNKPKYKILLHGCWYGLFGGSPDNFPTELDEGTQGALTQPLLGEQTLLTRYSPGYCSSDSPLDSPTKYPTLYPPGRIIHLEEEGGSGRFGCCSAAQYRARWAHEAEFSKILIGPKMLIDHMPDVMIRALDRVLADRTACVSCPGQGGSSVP
assay-explanation: Inhibition of FP-rhodamine-labelled recombinant mouse DAGLbeta expressed in HEK293T cells at 1 uM preincubated for 30 mins followed by FP-rhodamine labelling measured after 30 mins by gel-based competitive ABPP assay
Format: cell-based
conditions: HEK-293T
Catalogue of inhibition readings, one per entry.
experimental-readout: inhibition (%)

compound	unit-string	recorded-value
O=C(O)c1cccc(-c2ccc(-c3cn(C(=O)N4CCCCC4CCc4ccccc4)nn3)cc2)c1 (racemic)	%	4
O=C(c1ccc(-c2ccc(-c3cn(C(=O)N4CCCCC4c4ccccc4)nn3)cc2)cc1)N1CCCCC1 (racemic)	%	0
O=C(O)c1cccc(-c2ccc(-c3cn(C(=O)N4CCCCC4c4ccccc4)nn3)cc2)c1 (racemic)	%	6
NC(=O)c1ccc(-c2ccc(-c3cn(C(=O)N4CCCCC4c4ccccc4)nn3)cc2)cc1 (racemic)	%	0
O=C(c1cccc(-c2ccc(-c3cn(C(=O)N4CCCCC4c4ccccc4)nn3)cc2)c1)N1CCCCC1 (racemic)	%	0
O=C(O)c1cccc(-c2ccc(-c3cn(C(=O)N4CCCCC4Cc4ccccc4)nn3)cc2)c1 (racemic)	%	50
O=C(N1CCCCC1c1ccccc1)n1cc(-c2ccc(-c3ccccc3CO)cc2)nn1 (racemic)	%	0
O=C(N1CCCCC1c1ccccc1)n1cc(-c2ccc(-c3cccc(CO)c3)cc2)nn1 (racemic)	%	0
O=C(N1CCCCC1c1ccccc1)n1cc(-c2ccc(-c3ccc(CO)cc3)cc2)nn1 (racemic)	%	0
